- target or test system: human TLR8 (Homo sapiens (Human), UniProt Q9NR97)
- Sequence (Q9NR97 27-1041): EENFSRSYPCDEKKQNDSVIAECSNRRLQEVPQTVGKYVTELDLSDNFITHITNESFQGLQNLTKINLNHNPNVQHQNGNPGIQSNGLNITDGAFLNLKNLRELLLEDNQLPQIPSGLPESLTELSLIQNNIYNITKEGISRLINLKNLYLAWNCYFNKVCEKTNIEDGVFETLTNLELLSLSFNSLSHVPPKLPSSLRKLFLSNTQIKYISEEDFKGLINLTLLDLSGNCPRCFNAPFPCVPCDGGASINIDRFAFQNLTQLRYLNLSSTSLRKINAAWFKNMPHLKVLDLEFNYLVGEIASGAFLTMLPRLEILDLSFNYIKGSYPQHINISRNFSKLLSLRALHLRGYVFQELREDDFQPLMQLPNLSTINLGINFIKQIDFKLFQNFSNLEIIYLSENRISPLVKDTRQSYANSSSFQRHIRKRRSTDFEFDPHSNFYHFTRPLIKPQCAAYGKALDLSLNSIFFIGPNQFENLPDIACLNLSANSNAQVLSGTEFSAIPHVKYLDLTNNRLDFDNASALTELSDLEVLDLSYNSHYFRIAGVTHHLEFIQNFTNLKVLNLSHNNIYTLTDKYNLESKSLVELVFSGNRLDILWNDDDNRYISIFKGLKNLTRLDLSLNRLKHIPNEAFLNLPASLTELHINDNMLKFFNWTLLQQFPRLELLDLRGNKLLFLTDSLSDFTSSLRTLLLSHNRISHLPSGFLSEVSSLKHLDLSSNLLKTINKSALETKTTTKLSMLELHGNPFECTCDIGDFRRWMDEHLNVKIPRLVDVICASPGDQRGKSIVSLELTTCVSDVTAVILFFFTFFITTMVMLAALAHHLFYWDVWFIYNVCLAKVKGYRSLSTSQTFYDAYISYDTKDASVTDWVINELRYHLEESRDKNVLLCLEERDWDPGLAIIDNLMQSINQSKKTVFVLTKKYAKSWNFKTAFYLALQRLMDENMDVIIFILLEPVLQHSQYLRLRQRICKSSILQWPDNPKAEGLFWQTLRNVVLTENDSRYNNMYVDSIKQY
- test name: TLR8 inhibition reporter assay (HEK-Blue cells, SEAP reporter, R848 stimulation);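 further: compounds tested from 0.05 nM to 50 µM, 22 h at 37 °C, SEAP measured with HEK-Blue Detection, inhibition relative to agonist plus DMSO versus a known inhibitor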
- experimental context: read-out: TLR8 IC50, HEK-Blue cells overexpressing human TLR8, R848 15.9 μM
observed property: IC50

| compound | target or test system | result |
| --- | --- | --- |
| Cc1cc(-c2[nH]c3ccc(C4CCN(C)CC4)cc3c2C(C)C)cc(C)n1 [Example 429] | human TLR8 (Homo sapiens (Human), UniProt Q9NR97) | 5.5 nM |
| Cc1cc(-c2[nH]c3ccc(C4CCNCC4)cc3c2C(C)C)c(N)cn1 [Example 10] | human TLR8 (Homo sapiens (Human), UniProt Q9NR97) | 6.3 nM |
| Cc1cc(-c2[nH]c3ccc(C4CCN(C5COC5)CC4)cc3c2C(C)C)ccn1 [Example 711] | human TLR8 (Homo sapiens (Human), UniProt Q9NR97) | 11.2 nM |
| COc1cc(-c2[nH]c3ccc(C4CCN(C5CCN(CC6CC6)CC5)CC4)cc3c2C(C)C)ccn1 [Example 796] | human TLR8 (Homo sapiens (Human), UniProt Q9NR97) | 13.9 nM |
| Cc1cc(-c2[nH]c3ccc(C4CCN(C(=O)CCn5ccc(C)n5)CC4)cc3c2C(C)C)cc(C)n1 [Example 143] | human TLR8 (Homo sapiens (Human), UniProt Q9NR97) | 172 nM |
| Cc1cc(-c2[nH]c3ccc(C4CCN(C(=O)CN5CCC(F)(F)C5)CC4)cc3c2C(C)C)cc(C)n1 [Example 341] | human TLR8 (Homo sapiens (Human), UniProt Q9NR97) | 211 nM |
| CC(C)c1c(-c2cc(F)ncc2Cl)[nH]c2ccc(C3CCNCC3)cc12 [Example 18] | human TLR8 (Homo sapiens (Human), UniProt Q9NR97) | 47 nM |
| Cc1cc(-c2[nH]c3ccc(C4CCN(C(=O)C5CC(=O)N(C(C)(C)C)C5)CC4)cc3c2C(C)C)ccn1 (centres unmarked) [Example 613] | human TLR8 (Homo sapiens (Human), UniProt Q9NR97) | 206 nM |
